Test: growth inhibition, MDA-MB-436, cell-based, BGB or cisplatin combos, synergistic combos for chromothripsis tumors (AID 1671458);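 further: cells exposed for 96 hours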
Condition Summary: MDA-MB-436 breast carcinoma growth inhibition, drug combinations; measured here: BGB combination; at 0.5 µM; stronger effect = higher value
Entry flag: Met if inhibition reaches 20%; Not met if it does not.

Use the examples below as a reference point.
{"columns": ["Compound", "Label Class"],
 "data": [
  ["Cn1cnc2[nH]c(=O)[nH]c(=O)c21", "Not met"],
  ["Nc1ncn(C2OC(CO)C(O)C2O)c(=O)n1 (stereo not given)", "Not met"],
  ["Cn1cc(-c2cnn3c(N)c(Br)c([C@H]4CCCNC4)nc23)cn1", "Met"],
  ["Cc1ccc([N+](=O)[O-])cc1S(=O)(=O)N(C)/N=C\\c1cnc2ccc(Br)cn12", "Met"]
]}

Now look at this entry.
Does the compound COc1cccc2c1C(=O)c1c(O)c3c(c(O)c1C2=O)CC(O)(C(=O)CO)CC3OC1CC(N)C(OC2CCCCO2)C(C)O1 (stereo not given) have recorded inhibition that is 20% or more? Not met
